Biological target: T1, GST-thCENP-K^ΔN75
T1 chain: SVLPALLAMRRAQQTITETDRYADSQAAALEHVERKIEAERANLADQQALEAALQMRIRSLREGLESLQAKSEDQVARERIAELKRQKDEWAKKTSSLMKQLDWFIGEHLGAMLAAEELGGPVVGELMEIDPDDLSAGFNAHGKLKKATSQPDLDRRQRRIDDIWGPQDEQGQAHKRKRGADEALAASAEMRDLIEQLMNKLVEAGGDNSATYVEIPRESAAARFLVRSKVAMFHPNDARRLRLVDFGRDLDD
Assay: GST pull-down
Conditions: chain shown with the change;; parent: est. 1.0; read off a plot
Assign ratio to parent to each entry below.
Numbers only.

>  <Binder>
full-length T. terrestris CENP-H (thCENP-H) I205A; L219A (protein) MAATASTATPTPLPHFTEREASVLALYDRLRQLQLELALLTSQRSHGVIETSASRRAENDLAVDEARLLEARATLDLRDSVVENVVTLQPILNAVHHATHASPLERDLLPYTEQRDATATKVASLCADLDSAWGRLAELETESLRATQRNMELASEVLRLAAGTNDKTPSQLEGGRLEMELAGHEAEMKSNRRRWRIMKGAASAAVAGSGIDWVRDERARDLVLDLPD

>  <Numeric Value>
0.36

$$$$
>  <Binder>
full-length T. terrestris CENP-H (thCENP-H) L219A (protein) MAATASTATPTPLPHFTEREASVLALYDRLRQLQLELALLTSQRSHGVIETSASRRAENDLAVDEARLLEARATLDLRDSVVENVVTLQPILNAVHHATHASPLERDLLPYTEQRDATATKVASLCADLDSAWGRLAELETESLRATQRNMELASEVLRLAAGTNDKTPSQLEGGRLEMELAGHEAEMKSNRRRWRIMKGAASAIVAGSGIDWVRDERARDLVLDLPD

>  <Numeric Value>
0.68

$$$$
>  <Binder>
full-length T. terrestris CENP-H (thCENP-H) I205A (protein) MAATASTATPTPLPHFTEREASVLALYDRLRQLQLELALLTSQRSHGVIETSASRRAENDLAVDEARLLEARATLDLRDSVVENVVTLQPILNAVHHATHASPLERDLLPYTEQRDATATKVASLCADLDSAWGRLAELETESLRATQRNMELASEVLRLAAGTNDKTPSQLEGGRLEMELAGHEAEMKSNRRRWRIMKGAASAAVAGSGIDWVRDERLRDLVLDLPD

>  <Numeric Value>
0.65

$$$$

API: the following record is the query input.
Data request: What ratio to parent value was documented for this binder, full-length T. terrestris CENP-H (thCENP-H) L224A (protein) MAATASTATPTPLPHFTEREASVLALYDRLRQLQLELALLTSQRSHGVIETSASRRAENDLAVDEARLLEARATLDLRDSVVENVVTLQPILNAVHHATHASPLERDLLPYTEQRDATATKVASLCADLDSAWGRLAELETESLRATQRNMELASEVLRLAAGTNDKTPSQLEGGRLEMELAGHEAEMKSNRRRWRIMKGAASAIVAGSGIDWVRDERLRDLVADLPD ?
Data returned: 1.1
